Quick reference for abundance fitness among some variants
B1: Ankyrin-2, residues 3571 to 3650; numbered along this chain, Q01484 (parent)
chain: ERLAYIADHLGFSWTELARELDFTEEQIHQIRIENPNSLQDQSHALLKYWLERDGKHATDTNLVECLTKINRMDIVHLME

Variants of: B1
Assay: abundance fitness (aPCA) (normalised: wild type 0, dead -1); higher = more abundant; growth selection in yeast, the domain comes from the species named
Conditions: Homo sapiens

Recorded abundance fitness (variant "H57L" ): -0.093

Recorded abundance fitness (variant "E25Y" ): -0.122

Recorded abundance fitness (variant "E26Q" ): -0.129

Recorded abundance fitness (variant "L47A" ): -0.191

Recorded abundance fitness (variant "L3R" ): -0.077

Recorded abundance fitness (variant "G55D" ): 0.041

Recorded abundance fitness (variant "E20F" ): -0.098

Recorded abundance fitness (variant "T15C" ): -0.062

Recorded abundance fitness (variant "P36C" ): -0.123

Recorded abundance fitness (variant "L10V" ): -0.014

Recorded abundance fitness (variant "H29N" ): -0.108

Recorded abundance fitness (variant "I28T" ): -0.1

Recorded abundance fitness (variant "W14H" ): -0.842

Recorded abundance fitness (variant "I31A" ): -0.545

Recorded abundance fitness (variant "L21M" ): -0.107

Recorded abundance fitness (variant "Y49C" ): 0.037

Recorded abundance fitness (variant "Y5A" ): 0.066

The measurements presented in this section are drawn from the Human Domainome abundance scans (Beltran et al. 2025).
